- System tested: Histone-lysine N-methyltransferase EHMT1 (Homo sapiens, UniProt Q9H9B1)
- Sequence (Q9H9B1 whole entry): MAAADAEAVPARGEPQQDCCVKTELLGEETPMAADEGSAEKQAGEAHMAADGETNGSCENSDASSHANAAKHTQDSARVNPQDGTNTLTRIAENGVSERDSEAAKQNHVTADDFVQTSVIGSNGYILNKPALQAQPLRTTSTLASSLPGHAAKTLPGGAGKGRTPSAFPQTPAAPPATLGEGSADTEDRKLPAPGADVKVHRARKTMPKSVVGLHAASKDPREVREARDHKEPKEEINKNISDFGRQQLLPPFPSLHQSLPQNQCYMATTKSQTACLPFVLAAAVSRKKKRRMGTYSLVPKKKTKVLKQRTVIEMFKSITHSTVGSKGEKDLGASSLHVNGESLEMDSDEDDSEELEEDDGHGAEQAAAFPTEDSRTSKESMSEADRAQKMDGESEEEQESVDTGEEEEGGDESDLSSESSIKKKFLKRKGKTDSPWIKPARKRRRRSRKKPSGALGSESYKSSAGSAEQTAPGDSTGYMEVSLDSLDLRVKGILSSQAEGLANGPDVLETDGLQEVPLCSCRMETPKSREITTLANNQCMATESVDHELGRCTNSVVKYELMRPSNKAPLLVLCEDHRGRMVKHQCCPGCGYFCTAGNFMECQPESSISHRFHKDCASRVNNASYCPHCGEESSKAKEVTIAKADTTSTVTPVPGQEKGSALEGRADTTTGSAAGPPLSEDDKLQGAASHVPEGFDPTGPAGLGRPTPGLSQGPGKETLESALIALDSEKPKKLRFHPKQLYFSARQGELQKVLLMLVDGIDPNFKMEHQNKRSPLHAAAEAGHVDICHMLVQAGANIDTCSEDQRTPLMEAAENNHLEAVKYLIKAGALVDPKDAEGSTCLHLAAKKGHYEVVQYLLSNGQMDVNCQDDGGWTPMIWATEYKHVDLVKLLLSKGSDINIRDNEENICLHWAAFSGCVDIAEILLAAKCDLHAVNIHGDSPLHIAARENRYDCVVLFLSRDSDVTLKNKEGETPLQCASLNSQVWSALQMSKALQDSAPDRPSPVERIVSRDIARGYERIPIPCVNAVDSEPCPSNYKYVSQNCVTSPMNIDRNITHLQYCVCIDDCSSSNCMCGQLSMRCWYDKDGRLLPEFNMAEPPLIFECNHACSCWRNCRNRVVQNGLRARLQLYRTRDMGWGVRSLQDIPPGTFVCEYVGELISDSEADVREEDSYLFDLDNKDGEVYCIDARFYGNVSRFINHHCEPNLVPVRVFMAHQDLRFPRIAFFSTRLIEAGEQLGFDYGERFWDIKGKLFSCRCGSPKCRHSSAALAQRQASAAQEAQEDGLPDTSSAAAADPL
- Test description: Inhibition of EHMT1 (unknown origin)
Result type: IC50

Q: Consider the molecule Nc1ncnc2c1ncn2[C@@H]1O[C@H](C[C@@H](N)CC[C@H](N)C(=O)O)[C@@H](O)[C@H]1O [SINEFUNGIN] and give its measured IC50.
A: 0.1 to 20 µM

Hey, just so you know, these numbers are from ChEMBL document CHEMBL4043120.
